- SYSTEM_TESTED: Fatty-acid amide hydrolase 1 (Homo sapiens)
- Sequence (O00519 whole entry): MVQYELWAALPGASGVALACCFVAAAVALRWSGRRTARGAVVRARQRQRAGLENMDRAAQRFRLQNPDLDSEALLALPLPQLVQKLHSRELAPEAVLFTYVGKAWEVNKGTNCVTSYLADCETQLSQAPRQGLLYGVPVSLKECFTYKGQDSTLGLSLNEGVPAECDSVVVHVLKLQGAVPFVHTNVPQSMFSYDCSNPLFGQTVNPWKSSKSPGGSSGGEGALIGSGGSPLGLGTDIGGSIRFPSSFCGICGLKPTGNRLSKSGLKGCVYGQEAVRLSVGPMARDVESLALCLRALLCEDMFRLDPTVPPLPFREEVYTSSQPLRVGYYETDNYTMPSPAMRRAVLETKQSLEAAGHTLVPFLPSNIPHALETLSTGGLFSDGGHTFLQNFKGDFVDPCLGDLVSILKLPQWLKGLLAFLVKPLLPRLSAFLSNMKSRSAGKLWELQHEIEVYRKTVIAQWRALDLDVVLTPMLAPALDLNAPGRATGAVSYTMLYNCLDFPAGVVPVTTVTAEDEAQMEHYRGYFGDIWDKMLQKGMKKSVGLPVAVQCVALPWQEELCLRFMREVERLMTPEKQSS
- PROTOCOL_TEXT: Inhibition of FAAH in human U937 cells assessed as decrease in [ethanolamine-1-3H]AEA uptake preincubated for 2 mins followed by AEA addition after 5 mins by liquid scintillation counting method
- Assay type: cell-based
EXPERIMENTAL_READOUT: IC50 (nM)

>>> val("CCCCCCCC(=O)c1c(O)c(-c2ccc(O)cc2)c[nH]c1=O")
700
>>> val("CCCCCCCCCCCC(=O)c1c(O)c(-c2ccc(O)cc2)c[nH]c1=O")
800
>>> val("CCCCCCCCCCOC(=O)c1c(O)c(-c2ccc(O)cc2)c[nH]c1=O")
600
>>> val("CCC(C)/C=C(C)/C=C/C=C/C=C/C(=O)c1c(O)c(-c2ccc(O)cc2)c[nH]c1=O (stereo not given) [FARINOSONE A]")
1200

###

- SYSTEM_TESTED: Cannabinoid receptor 1 (Homo sapiens, UniProt P21554)
- Sequence (P21554 whole entry): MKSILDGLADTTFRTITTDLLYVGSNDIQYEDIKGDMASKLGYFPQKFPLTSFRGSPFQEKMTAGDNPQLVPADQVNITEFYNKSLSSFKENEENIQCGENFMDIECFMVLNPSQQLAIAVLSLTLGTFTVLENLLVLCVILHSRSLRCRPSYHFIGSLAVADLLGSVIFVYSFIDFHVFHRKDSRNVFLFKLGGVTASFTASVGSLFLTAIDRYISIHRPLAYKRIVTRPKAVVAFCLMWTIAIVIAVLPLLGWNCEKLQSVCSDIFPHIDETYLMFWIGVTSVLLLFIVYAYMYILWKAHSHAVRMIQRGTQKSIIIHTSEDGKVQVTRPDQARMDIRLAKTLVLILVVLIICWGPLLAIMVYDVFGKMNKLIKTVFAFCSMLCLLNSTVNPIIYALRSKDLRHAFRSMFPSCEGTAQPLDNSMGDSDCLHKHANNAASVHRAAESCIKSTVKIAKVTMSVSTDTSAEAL
pKi: −log10 of the molar value.
EXPERIMENTAL_READOUT: pKi

>>> val("CCCCCCCCCCCC(=O)c1c(O)c(-c2ccc(O)cc2)c[nH]c1=O")
6.00

###

- SYSTEM_TESTED: Fatty-acid amide hydrolase 1 (Homo sapiens)
- PROTOCOL_TEXT: Inhibition of FAAH in human U937 cells assessed as decrease in [ethanolamine-1-3H]AEA uptake at 10 uM preincubated for 2 mins followed by AEA addition after 5 mins by liquid scintillation counting method
- Type: cell-based
The source made the active and inactive calls. The rule behind the calls is not given here.
Possible outcomes: yes (1) = active, no (0) = inactive

>>> assigned_class("CCCCCCCCCCCC(=O)c1c(O)c(-c2ccc(O)cc2)c[nH]c1=O")
"yes (1)"
>>> assigned_class("C=CCCCOC(=O)c1c(O)c(-c2ccc(O)cc2)c[nH]c1=O")
"no (0)"
>>> assigned_class("CCC(C)/C=C(C)/C=C/C=C/C(=O)c1c(O)c(-c2ccc(O)cc2)c[nH]c1=O (centres undefined)")
"no (0)"
>>> assigned_class("CCC(/C=C(C)/C=C/C(=O)c1c(O)c(-c2ccc(O)cc2)c[nH]c1=O)CO (centres undefined)")
"no (0)"

###

- SYSTEM_TESTED: Monoacylglycerol lipase ABHD6 (Mus musculus) (UniProt Q8R2Y0)
- Sequence (whole entry): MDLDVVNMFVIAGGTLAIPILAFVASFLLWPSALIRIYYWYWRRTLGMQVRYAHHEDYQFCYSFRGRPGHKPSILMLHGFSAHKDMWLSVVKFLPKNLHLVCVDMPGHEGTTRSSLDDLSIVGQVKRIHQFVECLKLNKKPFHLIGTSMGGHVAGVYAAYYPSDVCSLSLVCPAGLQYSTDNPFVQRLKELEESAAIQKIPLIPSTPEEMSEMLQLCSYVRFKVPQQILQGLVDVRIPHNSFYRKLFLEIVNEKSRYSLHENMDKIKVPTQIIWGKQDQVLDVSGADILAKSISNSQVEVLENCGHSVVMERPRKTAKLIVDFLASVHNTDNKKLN
- PROTOCOL_TEXT: Inhibition of ABHD6 in mouse BV2 cells preincubated for 30 mins and subsequent addition of [3H]-2-OG substrate measured after 15 mins by liquid scintillation counting method
- Type: cell-based
Activity calls are given as the source filed them. No cut-off for these calls is given here.
Labels: active, inactive

>>> assigned_class("CCC(C)CC(C)/C=C(C)/C=C/C=C/C(=O)c1c(O)c(-c2ccc(O)cc2)c[nH]c1=O (configuration not stated)")
"inactive"
>>> assigned_class("CCC(/C=C/C=C/C=C/C(=O)c1c(O)c(-c2ccc(O)cc2)c[nH]c1=O)CO (configuration not stated)")
"inactive"
>>> assigned_class("CCC(/C=C(C)/C=C/C(=O)c1c(O)c(-c2ccc(O)cc2)c[nH]c1=O)CO (configuration not stated)")
"inactive"
>>> assigned_class("CCCCCCCCCCCCCCCCCC(=O)c1c(O)c(-c2ccc(O)cc2)c[nH]c1=O")
"inactive"
>>> assigned_class("CN(Cc1cccc(-c2ccncc2)c1)C(=O)Oc1ccc(-c2ccc(C(N)=O)cc2)cc1")
"active"
>>> assigned_class("C=CCCCOC(=O)c1c(O)c(-c2ccc(O)cc2)c[nH]c1=O")
"inactive"
>>> assigned_class("CCCCCCCC(=O)c1c(O)c(-c2ccc(O)cc2)c[nH]c1=O")
"inactive"
>>> assigned_class("CCC(C)/C=C(C)/C=C/C=C/C(=O)c1c(OC)c(-c2ccc(O)cc2)c[nH]c1=O (configuration not stated)")
"inactive"
>>> assigned_class("CCC(C)/C=C(C)/C=C/C=C/C(=O)c1c(O)c(-c2ccc(O)cc2)c[nH]c1=O (configuration not stated)")
"inactive"
>>> assigned_class("CCC(C)/C=C(C)/C=C/C=C/C=C/C(=O)c1c(O)c(-c2ccc(O)cc2)c[nH]c1=O (configuration not stated)")
"inactive"
>>> assigned_class("CCCCCCCCCCC[C@@H](C[C@@H]1OC(=O)[C@H]1CCCCCC)OC(=O)[C@H](CC(C)C)NC=O")
"active"
>>> assigned_class("CC[C@@H](C)/C=C(C)/C=C/C(=O)c1c(O)c(-c2ccc(O)cc2)c[nH]c1=O")
"inactive"

###

- SYSTEM_TESTED: Lysophosphatidylserine lipase ABHD12 (Mus musculus)
- Sequence (whole entry): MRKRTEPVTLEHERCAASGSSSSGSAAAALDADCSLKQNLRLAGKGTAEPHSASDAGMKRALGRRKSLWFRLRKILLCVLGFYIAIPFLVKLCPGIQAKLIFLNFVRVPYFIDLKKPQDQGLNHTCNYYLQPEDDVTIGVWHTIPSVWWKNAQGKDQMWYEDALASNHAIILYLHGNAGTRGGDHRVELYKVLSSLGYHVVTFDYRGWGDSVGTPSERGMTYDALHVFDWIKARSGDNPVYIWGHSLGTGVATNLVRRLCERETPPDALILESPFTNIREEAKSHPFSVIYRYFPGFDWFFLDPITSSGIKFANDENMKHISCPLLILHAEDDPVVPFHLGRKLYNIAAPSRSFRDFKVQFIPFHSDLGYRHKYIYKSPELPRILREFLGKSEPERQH
- PROTOCOL_TEXT: Inhibition of ABHD12 in mouse BV2 cells preincubated for 30 mins and subsequent addition of [3H]-2-OG substrate measured after 15 mins by liquid scintillation counting method
- Assay type: cell-based
Calls of active or inactive are those of the source. No cut-off for these calls is given here.
Possible outcomes: active, inactive

>>> assigned_class("CCC(/C=C(C)/C=C/C(=O)c1c(O)c(-c2ccc(O)cc2)c[nH]c1=O)CO (stereo not given)")
"inactive"
>>> assigned_class("C=CCCCOC(=O)c1c(O)c(-c2ccc(O)cc2)c[nH]c1=O")
"inactive"
>>> assigned_class("CCCCCCCCCCC[C@@H](C[C@@H]1OC(=O)[C@H]1CCCCCC)OC(=O)[C@H](CC(C)C)NC=O")
"active"
>>> assigned_class("CCCCCCCCCCOC(=O)c1c(O)c(-c2ccc(O)cc2)c[nH]c1=O")
"inactive"
>>> assigned_class("CCCCCCCCCCCC(=O)c1c(O)c(-c2ccc(O)cc2)c[nH]c1=O")
"inactive"

###

- SYSTEM_TESTED: Fatty-acid amide hydrolase 1 (Homo sapiens) (UniProt O00519)
- Sequence (O00519 whole entry): as the sequence (O00519 whole entry) above
- PROTOCOL_TEXT: Inhibition of FAAH in human U937 cells assessed as decrease in [ethanolamine-1-3H]AEA uptake at 10 uM preincubated for 2 mins followed by AEA addition after 5 mins by liquid scintillation counting method
- Format: cell-based
Activity calls are given as the source filed them. The rule behind the calls is not given here.
Classes used: active, inactive

>>> assigned_class("CC[C@@H](C)/C=C(C)/C=C/C(=O)c1c(O)c(-c2ccc(O)cc2)c[nH]c1=O")
"active"
>>> assigned_class("CCC(C)/C=C(C)/C=C/C=C/C=C/C(=O)c1c(O)c(-c2ccc(O)cc2)c[nH]c1=O (centres undefined)")
"active"
>>> assigned_class("CCC(C)CC(C)/C=C(C)/C=C/C=C/C(=O)c1c(O)c(-c2ccc(O)cc2)c[nH]c1=O (centres undefined)")
"active"
>>> assigned_class("CCC(/C=C/C=C/C=C/C(=O)c1c(O)c(-c2ccc(O)cc2)c[nH]c1=O)CO (centres undefined)")
"inactive"
>>> assigned_class("CCCCCCCCCCCCCCCCCC(=O)c1c(O)c(-c2ccc(O)cc2)c[nH]c1=O")
"inactive"
>>> assigned_class("CCC(C)CC(C)/C=C(C)/C=C/C(=O)c1c(O)c(-c2ccc(O)cc2)c[nH]c1=O (centres undefined)")
"inactive"
>>> assigned_class("CCC(C)/C=C(C)/C=C/C=C/C(=O)c1c(OC)c(-c2ccc(O)cc2)c[nH]c1=O (centres undefined)")
"active"
>>> assigned_class("CCCCCCCC(=O)c1c(O)c(-c2ccc(O)cc2)c[nH]c1=O")
"active"
>>> assigned_class("CCCCCCCCCCOC(=O)c1c(O)c(-c2ccc(O)cc2)c[nH]c1=O")
"active"
